test: logP determination by HPLC on a reversed-phase column (C 18), EEC Directive 79/831 Annex V.A8; type: physicochemical; details: value marked [a]
metric.name: logP

A selection of reference data follows.
>>> recorded_result("C=CCOC(C)(CON=C(C)c1cccc(C)n1)C(C)ON=C(C)c1cccc(C)n1 (stereo not drawn) [compound 872]")
"6.13^[a]"
>>> recorded_result("CC(=NOCC(C)(C)CON=C(C)c1cc(C2CC2)cc(C)n1)c1cccc(C)n1 [Compound 818]")
"3.80^[a]"

The record that follows has no logP shown yet.
Input line: Data request, read-out logP, for CC(=NOCCC(C)CCON=C(C)c1ccc(C(F)(F)F)cn1)c1ccc(C(F)(F)F)cn1 (stereo not drawn) [compound 832]
Output line: 7.36^[a]

----------
assay: logP determination by HPLC on a reversed-phase column (C 18), EEC Directive 79/831 Annex V.A8; type: physicochemical; settings: method marked [a] in Table 1
metric.name: logP

>>> recorded_result("CC(=NOCC(C)(C)CON=C(C)c1nccn1C)c1nccn1C")
"1.07^[a]"
>>> recorded_result("CC(=NOCC(C)CON=C(C)c1nc2ccccc2[nH]1)c1nc2ccccc2[nH]1 (mixture of isomers)")
"2.05^[a]"

The record that follows has no logP shown yet.
Input line: Data request, read-out logP, for CCC(=NOCC(C)CON=C(CC)c1cc(C)cc(C)n1)c1cc(C)cc(C)n1 (mixture of isomers) [Compound 572]
Output line: 3.23^[a]

----------
experiment: logP determination by HPLC on a reversed-phase column (C 18), EEC Directive 79/831 Annex V.A8; assay type: physicochemical; settings: value marked [b]
metric.name: logP

A selection of reference data follows.
>>> recorded_result("CC(=NOCCCCON=C(C)c1cncc(C)n1)c1cccc(C)n1")
"1.88^[b]"
>>> recorded_result("CC(=NOCCCCCCON=C(C)c1cccc(C(C)C)n1)c1cccc(C)n1")
"7.12^[b]"
>>> recorded_result("CC(=NOCC(C)(C)CON=C(C)c1cc(C)cc(C)n1)c1cccc(C)n1")
"3.33^[b]"

The record that follows has no logP shown yet.
Input line: Data request, read-out logP, for CC(=NOCC(C)CON=C(C)c1cc(C(F)(F)F)cc(C)n1)c1cc(C(F)(F)F)cc(C)n1 (stereo not shown)
Output line: 7.36^[b]

----------
test: logP determination by HPLC on a reversed-phase column (C 18), EEC Directive 79/831 Annex V.A8; format: physicochemical; details: method marker [b]; isomer A / isomer B / isomer mixture as noted in the cell
metric.name: logP

>>> recorded_result("C=C(CO/N=C(\\N)c1nc(C)c(Cl)c(C)n1)CO/N=C(\\N)c1nc(C)c(Cl)c(C)n1")
"2.84^[b]"

Input line: Data request, read-out logP, for CC(=NOCON=C(C)c1nc(C)c(C)s1)c1nc(C)c(C)s1
Output line: 4.46^[b]

Input line: And then CC(=NOCCCCON=C(C)c1nc(C)c(C)s1)c1nc(C)c(C)s1 , what is it?
Output line: 5.59^[b]

Input line: And then C=C(CON=C(C)c1cccs1)CON=C(C)c1cccs1 (single isomer, unassigned) [compound 77] , what is it?
Output line: 4.84^[b] (isomer B)

Input line: And then C=C(CON=C(C)c1cccc(C)c1)CON=C(C)c1cccc(C)n1 , what is it?
Output line: 5.03^[b]

Input line: And then C=C(CON=C(C)c1c(C)noc1C)CON=C(C)c1c(C)noc1C , what is it?
Output line: 3,57^[b]

Input line: And then CC(=NOCCCON=C(C)c1cccnc1)c1cccnc1 , what is it?
Output line: 1.51^[b]

Input line: And then C=C(CON=C(C)c1ccc(C)nc1)CON=C(C)c1cccc(C)n1 (single isomer, unassigned) , what is it?
Output line: 1.92^[b] (isomer A)

Input line: And then CC(=NOCCON=C(C)c1cnc(-c2ccccc2)s1)c1cnc(-c2ccccc2)s1 , what is it?
Output line: 6.51^[b]

Input line: And then C=C(CON=C(C)c1cccc(C)n1)CON=C(N)c1cc(C)cc(C)n1 , what is it?
Output line: 2.92^[b]

Input line: And then C=C(CON=C(C)c1ncccc1C)CON=C(C)c1ncccc1C , what is it?
Output line: 2.90^[b]

Input line: And then C=C(CON=C(C)c1nc(C)c(C)s1)CON=C(C)c1nc(C)c(C)s1 (single isomer, unassigned) [compound 69] , what is it?
Output line: 4.99^[b] (isomer A)

Input line: And then C=C(CON=C(C)c1cccc(CCC)n1)CON=C(C)c1cccc(CCC)n1 , what is it?
Output line: 6.89^[b]
